Target: T1, soluble human FcRn (human, UniProt P55899 24-297; P61769 21-119, biotinylated (Sulfo-NHS-LC-Biotin) in the ELISA; amine-coupled to CM5 chip in SPR)
T1 construct: also called shFcRn; biotinylated shFcRn
T1 sequence (P55899 24-297 limits assumed, chain 1 of 2): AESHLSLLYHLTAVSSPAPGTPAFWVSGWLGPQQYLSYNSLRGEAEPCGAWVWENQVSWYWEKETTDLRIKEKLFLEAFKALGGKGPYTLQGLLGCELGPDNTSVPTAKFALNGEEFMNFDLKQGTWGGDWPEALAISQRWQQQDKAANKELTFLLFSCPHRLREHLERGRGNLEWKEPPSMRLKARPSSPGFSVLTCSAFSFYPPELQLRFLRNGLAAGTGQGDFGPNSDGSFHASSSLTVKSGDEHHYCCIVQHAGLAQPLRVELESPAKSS
T1 sequence (P61769 21-119 limits assumed, chain 2 of 2): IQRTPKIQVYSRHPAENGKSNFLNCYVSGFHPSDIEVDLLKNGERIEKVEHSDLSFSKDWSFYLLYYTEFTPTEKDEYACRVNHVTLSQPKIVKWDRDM
Experiment: SPR, pH 6
Bridge positions count the residues as written; N and C are the ends. Square brackets hold non-standard residues; d marks the D form. Ends that are not written are not given here. Pen = CC(C)(S)[C@H](N)C(=O)O; NMeA = CN[C@@H](C)C(=O)O
# Kd values compiled below
Answer with the figure and its unit, nothing else.

Example cases with answers are listed next.
Binder	Kd
QRFXGGHFGGLYPCNGP (Pen at 4; disulfide; C-terminal amide) [Peptide No. 195]	760 nM
QRF[Pen]HGHFGGLYPCNGP-NH2 (disulfide 4-14; N-terminus assumed; SMILES CC(C)C[C@@H]1NC(=O)CNC(=O)CNC(=O)[C@H](Cc2ccccc2)NC(=O)[C@H](Cc2c[nH]cn2)NC(=O)CNC(=O)[C@H](Cc2c[nH]cn2)NC(=O)[C@@H](NC(=O)[C@H](Cc2ccccc2)NC(=O)[C@H](CCCNC(=N)N)NC(=O)[C@@H](N)CCC(N)=O)C(C)(C)SSC[C@@H](C(=O)N[C@@H](CC(N)=O)C(=O)NCC(=O)N2CCC[C@H]2C(N)=O)NC(=O)[C@@H]2CCCN2C(=O)[C@H](Cc2ccc(O)cc2)NC1=O) [Peptide No. 296]	150 nM
QRF[Pen][NMeA]GHFGGLYPCNGP-NH2 (disulfide 4-14; N-terminus assumed; SMILES CC(C)C[C@@H]1NC(=O)CNC(=O)CNC(=O)[C@H](Cc2ccccc2)NC(=O)[C@H](Cc2c[nH]cn2)NC(=O)CNC(=O)[C@H](C)N(C)C(=O)[C@@H](NC(=O)[C@H](Cc2ccccc2)NC(=O)[C@H](CCCNC(=N)N)NC(=O)[C@@H](N)CCC(N)=O)C(C)(C)SSC[C@@H](C(=O)N[C@@H](CC(N)=O)C(=O)NCC(=O)N2CCC[C@H]2C(N)=O)NC(=O)[C@@H]2CCCN2C(=O)[C@H](Cc2ccc(O)cc2)NC1=O) [Peptide No. 213]	1000 nM

Next item in the queue.
Kd measured on QRFXTGHFGGLYPCNGP (Pen (L-penicillamine) at 4; disulfide; C-terminal amide) [Peptide No. 32] = 250 nM
